Tested on: Staphylococcus aureus
Assay: Antibacterial activity against Staphylococcus aureus after 18 hrs by broth microdilution method
Type: functional
propertyName: log10(MIC50) (log10 of the value in µg/mL)
Please keep in mind that the values are log10 of MIC50 expressed in µg/mL.

Known log10(MIC50) results, listed for orientation:
CCCCCCCCCCCCSC(=S)N[C@H]1CCOC1=O ... 1.70
O=C(CSC(=S)N[C@H]1CCOC1=O)Nc1ccc(Br)cc1 ... 0.57
O=C(CSC(=S)N[C@H]1CCOC1=O)Nc1ccccc1Cl ... 0.75
O=C(CSC(=S)N[C@H]1CCOC1=O)Nc1ccc(Cl)cc1 ... 0.54

Exercise: Given the compound `O=C(CSC(=S)N[C@H]1CCOC1=O)Nc1ccccc1` , write its reported log10(MIC50).
Solution: 0.89

----------
Reported values of MIC50 for individual entries
System: Pseudomonas aeruginosa
Assay: Antibacterial activity against Pseudomonas aeruginosa after 18 hrs by broth microdilution method
Assay type: functional

CCCCSC(=S)N[C@H]1CCOC1=O ... 44.6 µg/mL
CCCCCCSC(=S)N[C@H]1CCOC1=O ... > 128 µg/mL
Cc1cccc(NC(=O)CSC(=S)N[C@H]2CCOC2=O)c1 ... 37.2 µg/mL
O=C(CSC(=S)N[C@H]1CCOC1=O)Nc1cccc(C(F)(F)F)c1 ... > 128 µg/mL
O=C(CSC(=S)N[C@H]1CCOC1=O)Nc1ccccc1F ... > 128 µg/mL
O=C(CSC(=S)N[C@H]1CCOC1=O)Nc1ccc(Cl)cc1 ... > 128 µg/mL
CCCCCCCCCCCCCCSC(=S)N[C@H]1CCOC1=O ... > 128 µg/mL
O=C(CSC(=S)N[C@H]1CCOC1=O)Nc1ccccc1Cl ... > 128 µg/mL

Exercise: Given the molecule `Cc1cccc(NC(=O)CSC(=S)N[C@H]2CCOC2=O)c1C` , write its reported MIC50.
Solution: > 128 µg/mL

Exercise: Given the molecule `CCCCCCCCCCCCSC(=S)N[C@H]1CCOC1=O` , write its reported MIC50.
Solution: > 128 µg/mL

Exercise: Given the molecule `CCCCCCCCSC(=S)N[C@H]1CCOC1=O` , write its reported MIC50.
Solution: > 128 µg/mL

Exercise: Given the molecule `COc1ccc(NC(=O)CSC(=S)N[C@H]2CCOC2=O)cc1` , write its reported MIC50.
Solution: > 128 µg/mL

Exercise: Given the molecule C[C@H]1COc2c(N3CCN(C)CC3)c(F)cc3c(=O)c(C(=O)O)cn1c23.C[C@H]1COc2c(N3CCN(C)CC3)c(F)cc3c(=O)c(C(=O)O)cn1c23.O [LEVOFLOXACIN] , write its reported MIC50.
Solution: < 0.25 µg/mL

Exercise: Given the molecule `O=C(CSC(=S)N[C@H]1CCOC1=O)Nc1ccc(Br)cc1` , write its reported MIC50.
Solution: 54.5 µg/mL

Exercise: Given the molecule `CCSC(=S)N[C@H]1CCOC1=O` , write its reported MIC50.
Solution: 34.6 µg/mL

Exercise: Given the molecule `O=C(CSC(=S)N[C@H]1CCOC1=O)Nc1ccccc1` , write its reported MIC50.
Solution: 48.5 µg/mL

Exercise: Given the molecule `O=C(CSC(=S)N[C@H]1CCOC1=O)Nc1cccc([N+](=O)[O-])c1` , write its reported MIC50.
Solution: 59.9 µg/mL

Exercise: Given the molecule `O=C(CSC(=S)N[C@H]1CCOC1=O)Nc1cccc(Cl)c1` , write its reported MIC50.
Solution: > 128 µg/mL

Exercise: Given the molecule `O=C(CSC(=S)N[C@H]1CCOC1=O)Nc1ccc(Cl)cc1Cl` , write its reported MIC50.
Solution: > 128 µg/mL

Exercise: Given the molecule `Cc1ccc(NC(=O)CSC(=S)N[C@H]2CCOC2=O)cc1` , write its reported MIC50.
Solution: 63.8 µg/mL

Exercise: Given the molecule `CSC(=S)N[C@H]1CCOC1=O` , write its reported MIC50.
Solution: 31.9 µg/mL

----------
Reported values of MIC50 for individual entries
Tested on: Staphylococcus aureus
Assay: Antibacterial activity against Staphylococcus aureus after 18 hrs by broth microdilution method
Assay type: functional
# value in µg/mL; strip the unit string

Known MIC50 results, listed for orientation:
COc1ccc(NC(=O)CSC(=S)N[C@H]2CCOC2=O)cc1 ... 9.52
O=C(CSC(=S)N[C@H]1CCOC1=O)Nc1ccc(Cl)cc1Cl ... 4.9

# ---- query molecule ----
Exercise: Given the molecule `Cc1ccc(NC(=O)CSC(=S)N[C@H]2CCOC2=O)cc1` , write its reported MIC50.
Solution: 3.49

----------
System: Staphylococcus aureus
Experiment: Antibacterial activity against Staphylococcus aureus after 18 hrs by broth microdilution method
Assay type: functional
propertyName: MIC50

CCSC(=S)N[C@H]1CCOC1=O ... > 128 mg/L
O=C(CSC(=S)N[C@H]1CCOC1=O)Nc1cccc(Cl)c1 ... > 128 mg/L

# ---- query compound ----
Exercise: Given C[C@H]1COc2c(N3CCN(C)CC3)c(F)cc3c(=O)c(C(=O)O)cn1c23.C[C@H]1COc2c(N3CCN(C)CC3)c(F)cc3c(=O)c(C(=O)O)cn1c23.O [LEVOFLOXACIN] , report its MIC50 on Staphylococcus aureus.
Solution: < 0.25 mg/L

----------
Tested on: Staphylococcus aureus
Assay: Antibacterial activity against Staphylococcus aureus after 18 hrs by broth microdilution method
Format: functional
Reported values of MIC50 for individual entries

Known MIC50 results, listed for orientation:
CCCCCCCCCCCCCCSC(=S)N[C@H]1CCOC1=O ... > 128 mg/L
Cc1cccc(NC(=O)CSC(=S)N[C@H]2CCOC2=O)c1C ... > 128 mg/L

# ---- query compound ----
Exercise: Given the compound `CCCCCCSC(=S)N[C@H]1CCOC1=O` , write its reported MIC50.
Solution: > 128 mg/L

meta.source: ChEMBL document CHEMBL2401621
